Please provide measured pIC50 for the entries that follow.
Remember the convention: pIC50 equals -log10 of concentration in molar.

stdin: # lookup: Tyrosine-protein kinase JAK3 (Homo sapiens, UniProt P52333) pIC50, key = O=Cc1ccc2c(c1)c1c3c(c4c5cc(Br)ccc5n5c4c1n2CC(CO)C5)C(=O)NC3 (stereo unspecified)
stdout: 7.82

stdin: # lookup: Tyrosine-protein kinase JAK3 (Homo sapiens, UniProt P52333) pIC50, key = O=C1NCc2c1c1c3ccccc3n3c1c1c2c2ccccc2n1CC(=C(CO)CO)C3
stdout: 7.44

stdin: # lookup: Tyrosine-protein kinase JAK3 (Homo sapiens, UniProt P52333) pIC50, key = O=C1NCc2c1c1c3ccccc3n3c1c1c2c2ccccc2n1CC(O)C3 (stereo unspecified)
stdout: 6.85

stdin: # lookup: Tyrosine-protein kinase JAK3 (Homo sapiens, UniProt P52333) pIC50, key = CC(C)OCc1ccc2c(c1)c1c3c(c4c5ccccc5n5c4c1n2CC(CO)C5)C(=O)NC3 (stereo unspecified)
stdout: 7.10

stdin: # lookup: Tyrosine-protein kinase JAK3 (Homo sapiens, UniProt P52333) pIC50, key = O=C1NCc2c1c1c3cc(/C=C/Cn4ccnc4)ccc3n3c1c1c2c2ccccc2n1CC(CO)C3 (stereo unspecified)
stdout: 7.96
